Where do the numbers come from? From patent US20030068675.

Target: T1, ZFP SBS#647 (synthetic)
T1 chain: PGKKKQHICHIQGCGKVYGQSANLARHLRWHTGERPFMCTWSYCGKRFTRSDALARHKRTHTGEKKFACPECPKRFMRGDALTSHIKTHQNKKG
Test: EMSA
Conditions: tags: MBP fusion
ASSAY_ENDPOINT: pKd
In textbook form, pKd equals minus log to base ten of the concentration in mol/L.

**Q:** Identify measured pKd corresponding to TTGGTGGAAG (dsDNA) DNA 1: TTGGTGGAAG DNA 2: CTTCCACCAA
**A:** 7.40
